Sourced from ChEMBL document CHEMBL5104182

- test method notes: Tmax in Sprague-Dawley rat at 10 mg/kg, po upto 24 hrs by HPLC analysis
- Format: ADME, organism-based
- recorded conditions: in vivo
measured parameter: Tmax (min)
# unit: min | format: bare number

// query Param item = `Nc1ccc(Oc2ccc(NC(=O)Nc3cccc(C(F)(F)F)c3)cc2)cn1` ; retrieve measured Tmax.
// result 48

----------
- Test system: HT-29
- test method notes: Antiproliferative activity against human HT-29 cells assessed as cell viability incubated for 48 hrs by MTT assay
- Assay type: functional
Listed here: items and their measured log10 GI50.
The base-10 logarithm of GI50, taken with GI50 in µM, is what appears here.

[
  {
    "item smiles": "Nc1ccc(Oc2ccc(NC(=O)Nc3cccc(Cl)c3)cc2)cn1",
    "measured parameter": "log10 GI50",
    "measurement": 0.93
  },
  {
    "item smiles": "Nc1ccc(Sc2ccc(NC(=O)Nc3cccc(C(F)(F)F)c3)cc2)cn1",
    "measured parameter": "log10 GI50",
    "measurement": 1.22
  },
  {
    "item smiles": "COc1cccc(NC(=O)Nc2ccc(Oc3ccc(N)nc3)cc2)c1",
    "measured parameter": "log10 GI50",
    "measurement": 0.95
  },
  {
    "item smiles": "Nc1ccc(Oc2cccc(NC(=O)Nc3cccc(Br)c3)c2)cn1",
    "measured parameter": "log10 GI50",
    "measurement": 1.70
  }
]

Proceeding to the next molecule to report its log10 GI50.
// query # get_value(readout='log10 GI50', item= `Nc1ccc(Oc2ccc(NC(=O)Nc3cccc(C(F)(F)F)c3)cc2)cn1` )
// result -0.15

----------
- test method notes: MRT in Sprague-Dawley rat at 2 mg/kg, iv upto 24 hrs by HPLC analysis
- Type: ADME, organism-based
- recorded conditions: in vivo
measured parameter: MRT (min)
Report as a plain number; the unit min is understood.

// query Quick one: MRT for `Nc1ccc(Oc2ccc(NC(=O)Nc3cccc(C(F)(F)F)c3)cc2)cn1` ?
// result 54

----------
- test method notes: Half life in Sprague-Dawley rat at 10 mg/kg, po upto 24 hrs by HPLC analysis
- Type: ADME, organism-based
- recorded conditions: in vivo
measured parameter: half-life (h)
Give a bare numeral; the unit h is implied.

// query Which half-life value is on record for `Nc1ccc(Oc2ccc(NC(=O)Nc3cccc(C(F)(F)F)c3)cc2)cn1` ?
// result 1.1

----------
- Tested on: CT26
- test method notes: Antiproliferative activity against […] cells assessed as cell viability incubated for 48 hrs by MTT assay
- Assay type: functional
- recorded conditions: Mus musculus
In plain terms, low GI50, meaning strictly below 40 µM, gives Y, and everything else gives N.

Past entries and their recorded results:
[
  {
    "item smiles": "Nc1ccc(Oc2cccc(NC(=O)Nc3ccc(F)c(Cl)c3)c2)cn1",
    "assigned label": "Y"
  },
  {
    "item smiles": "Nc1ccc(Oc2cccc(NC(=O)Nc3ccc(F)cc3)c2)cn1",
    "assigned label": "N"
  },
  {
    "item smiles": "Nc1ccc(Oc2cccc(NC(=O)Nc3cccc(Cl)c3)c2)cn1",
    "assigned label": "N"
  },
  {
    "item smiles": "Nc1ccc(Oc2cccc(NC(=O)Nc3cccc(Br)c3)c2)cn1",
    "assigned label": "N"
  }
]

// query Take the molecule `O=C(Nc1ccc(Oc2cnc3[nH]ccc3c2)cc1)Nc1cccc(Cl)c1` and say whether its GI50 is less than 40 µM.
// result Y

// query What do we get for `Nc1ccc(Oc2cccc(NC(=O)Nc3ccc(Cl)c(C(F)(F)F)c3)c2)cn1` ?
// result Y
